Entries annotated with measured percent of cell free region filled (gap closure)
- Tested on: T47D cells
- run-description: Wound closure assay and morphology (circularity), T47D cells with Mena^11a-specific shRNA
- Assay type: cell-based, human
- applied-conditions: 48 hours

sh-2C: paired control shRNA for sh-2, SEQ ID NO. 9 (nucleic acid) guide: TGCTGTTGACAGTGAGCGAAACAGGTCATAGGATTAATTATAGTGAAGCCACAGATGTATAATTAATCCTATGACCTGTTCTGCCTACTGCCTCGGA: 40.38% ±4.2
sh-1: shRNA targeting the 11a insertion of Mena^11a, SEQ ID NO. 6 (nucleic acid) guide: TGCTGTTGACAGTGAGCGCATGATTCATTACACAGACCAATAGTGAAGCCACAGATGTATTGGTCTGTGTAATGAATCATATGCCTACTGCCTCGGA: 78.39% ±4.8
sh-2: shRNA targeting the 11a insertion of Mena^11a, SEQ ID NO. 8 (nucleic acid) guide: TGCTGTTGACAGTGAGCGCAACAGGTCCTATGATTCATTATAGTGAAGCCACAGATGTATAATGAATCATAGGACCTGTTATGCCTACTGCCTCGGA: 70.20% ±8.8

# next molecule below
Reported percent of cell free region filled (gap closure) of sh-1C: paired control shRNA for sh-1, SEQ ID NO. 7 (nucleic acid) guide: TGCTGTTGACAGTGAGCGAATGATTCCTTAAACAGCCCAATAGTGAAGCCACAGATGTATTGGGCTGTTTAAGGAATCATGTGCCTACTGCCTCGGA : 50.41% ±3.7
